Source: patent US20260069689A1

Task for the reader: assign each of the following binders its reported t½ at pH 6.0.
# system_tested: SARS-COV-2 RBD-MMH (SARS-COV-2 RBD extracellular domain with C-terminal myc-myc-hexahistidine tag) (SARS-CoV-2)
Numbers only, in min.

[
  {
    "binder": "mAb15157 (antibody, V domains shown) VH: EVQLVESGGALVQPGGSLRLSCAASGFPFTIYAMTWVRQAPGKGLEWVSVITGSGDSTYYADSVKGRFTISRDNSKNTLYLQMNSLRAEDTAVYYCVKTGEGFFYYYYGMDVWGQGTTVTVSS VL: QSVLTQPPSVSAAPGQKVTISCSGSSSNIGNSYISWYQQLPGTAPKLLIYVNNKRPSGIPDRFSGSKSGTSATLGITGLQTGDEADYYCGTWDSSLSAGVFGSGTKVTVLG",
    "t½ at pH 6.0 [min]": 1.5
  }
]

Fill in t½ at pH 6.0 for each of the 2 binders listed.
1. mAb14282 (antibody, V domains shown) VH: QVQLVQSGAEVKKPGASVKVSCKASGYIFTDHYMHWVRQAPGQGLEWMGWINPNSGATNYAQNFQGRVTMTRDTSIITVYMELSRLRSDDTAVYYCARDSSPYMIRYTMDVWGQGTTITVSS VL: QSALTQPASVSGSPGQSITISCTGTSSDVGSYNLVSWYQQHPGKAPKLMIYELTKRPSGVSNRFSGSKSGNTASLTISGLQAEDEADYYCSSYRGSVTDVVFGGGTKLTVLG
2. mAb15158 (antibody, V domains shown) VH: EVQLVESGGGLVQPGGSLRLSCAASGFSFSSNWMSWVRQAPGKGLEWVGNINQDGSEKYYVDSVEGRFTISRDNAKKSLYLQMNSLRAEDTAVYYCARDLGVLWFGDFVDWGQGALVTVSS VL: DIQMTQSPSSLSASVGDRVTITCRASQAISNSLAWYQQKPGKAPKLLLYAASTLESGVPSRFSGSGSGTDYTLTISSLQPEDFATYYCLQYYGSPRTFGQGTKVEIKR

(A)
[1.2, 40.1]
